Assignment: determine reported solubility for the given compounds.
# ASSAY_PROTOCOL: Solubility of the compound in pH 6.5 phosphate buffer containing 5% DMSO
# RUN_PARAMETERS: phosphate buffer containing 5% DMSO

Record Oc1ccccc1C(O)Cn1ccnc1 (stereo unspecified) , field solubility: > 1000 µM

For reference, reported solubility for OC(Cn1ccnc1)c1ccccc1Cl (stereo unspecified) stands at > 1000 µM

Lookup result for O=C(Cn1ccnc1)c1ccc(Cl)cc1Cl ; measured solubility: > 1000 µM

solubility in this record for Clc1ccc(CCn2ccnc2)c(Cl)c1 : > 1000 µM

Consider Clc1ccc(Cn2ccnc2)c(Cl)c1 . Its measured solubility is > 1000 µM

Value of measured solubility for the entry COC(Cn1ccnc1)c1ccc(Cl)cc1Cl (stereo unspecified) : > 1000 µM

Please fill in: solubility reported for OC(Cn1ccnc1)c1ccc(Cl)cc1Cl (stereo unspecified) = > 1000 µM

Value of solubility reported for the compound Clc1ccc(-n2ccnc2)c(Cl)c1 is > 1000 µM

In plain terms, OC(Cn1ccnc1)c1ccc(Cl)c(Cl)c1 (stereo unspecified) has a documented solubility of > 1000 µM

Record Clc1ccc(COCCn2ccnc2)c(Cl)c1 , field solubility: > 1000 µM

Record c1ccc(CCn2ccnc2)cc1 . Reported solubility: > 1000 µM

Input c1ccc(-c2ccc(C(c3ccccc3)n3ccnc3)cc2)cc1 (stereo unspecified) . Output solubility: 25 µM

For record OC(Cn1cncn1)c1ccc(Cl)cc1Cl (stereo unspecified) the listed solubility is > 1000 µM

Noted for Clc1ccc(CSC(Cn2ccnc2)c2ccc(Cl)cc2Cl)cc1 (stereo unspecified) : its solubility reads 10 µM

Measured solubility of c1ccc(Cn2ccnc2)cc1 : > 1000 µM

For this compound ( S=c1[nH]cc(-c2ccc(Cl)cc2)o1 ), measured solubility is 100 µM
